- EXPERIMENT_NOTES: Tmax in Balb/C mouse at 10 mg/kg, po qd
- Type: ADME, organism-based
- CONDITION_LABEL: in vivo
QUANTITY_MEASURED: Tmax (h)
Field format: number, assumed h, no unit text.

Request: Consider the compound shown here: [2H]C([2H])([2H])Oc1ccc(-c2c(-c3ccnc(NC(C)=O)c3)[nH]c3cccnc23)nc1 What is its recorded Tmax?
Result: 1

###

- EXPERIMENT_NOTES: Cmax in Balb/C mouse at 10 mg/kg, po qd
- Assay type: ADME, organism-based
- Parameters: dose 10 mg/kg, route oral
- CONDITION_LABEL: in vivo
QUANTITY_MEASURED: Cmax (µM)
Respond numerically; units are µM and should not be typed.

Request: Can you share its Cmax? I mean this molecule: [2H]C([2H])([2H])Oc1ccc(-c2c(-c3ccnc(NC(C)=O)c3)[nH]c3cccnc23)nc1
Result: 5.3

###

- EXPERIMENT_NOTES: Tmax in Balb/C mouse at 50 mg/kg, po bid
- Format: ADME, organism-based
- CONDITION_LABEL: in vivo
QUANTITY_MEASURED: Tmax (h)
Answer in h, number only, no unit symbol.

Request: Query: Tmax; subject: CC(=O)Nc1cc(-c2[nH]c3cccnc3c2-c2cccc(C(F)F)n2)ccn1
Result: 1

###

- EXPERIMENT_NOTES: Fraction unbound in rat plasma
- Type: ADME, cell-free
What fraction unbound was measured for each of the following?
Reply briefly: the number, and no unit.

Request: Need fraction unbound, item [2H]C([2H])([2H])Oc1ccc(-c2c(-c3ccnc(NC(C)=O)c3)[nH]c3cccnc23)nc1
Result: 0.25

Request: Which measured fraction unbound value corresponds to CC(=O)Nc1cc(-c2[nH]c3cccnc3c2-c2cccc(C(F)F)n2)ccn1 ?
Result: 0.18

###

- Tested on: Mus musculus
- EXPERIMENT_NOTES: Toxicity in C57/BL6 mouse xenografted with mouse MC38 cells assessed as body weight loss at 25 to 50 mg/kg, po qd for 28 days measured twice weekly
- Format: organism-based
- CONDITION_LABEL: in vivo, 672 h
QUANTITY_MEASURED: Activity

Request: Given the compound [2H]C([2H])([2H])Oc1ccc(-c2c(-c3ccnc(NC(C)=O)c3)[nH]c3cccnc23)nc1 , what is its reported Activity?
Result: < 5%

###

- EXPERIMENT_NOTES: AUC (0 to 24 hrs) in Balb/C mouse at 50 mg/kg, po bid
- Type: ADME, organism-based
- Set-up: time < 24 hr, dose 50 mg/kg, route oral
- CONDITION_LABEL: in vivo
QUANTITY_MEASURED: AUC at 24 h (µM·h)
Use µM·h as the unit, but write only the number.

Request: State the recorded AUC at 24 h for this entry: CC(=O)Nc1cc(-c2[nH]c3cccnc3c2-c2cccc(C(F)F)n2)ccn1
Result: 14.1

###

- EXPERIMENT_NOTES: AUC (0 to 24 hrs) in Balb/C mouse at 10 mg/kg, po qd
- Type: ADME, organism-based
- Parameters: time < 24 hr, dose 10 mg/kg, route oral
- CONDITION_LABEL: in vivo
QUANTITY_MEASURED: AUC at 24 h (µM·h)
I only need the number, in µM·h, no unit after it.

Request: For [2H]C([2H])([2H])Oc1ccc(-c2c(-c3ccnc(NC(C)=O)c3)[nH]c3cccnc23)nc1 , what is its reported AUC at 24 h?
Result: 19.5
